Target: human CCR7 (Homo sapiens, UniProt P32248)
Construct: expressed in transfected cells
Sequence (P32248 25-378): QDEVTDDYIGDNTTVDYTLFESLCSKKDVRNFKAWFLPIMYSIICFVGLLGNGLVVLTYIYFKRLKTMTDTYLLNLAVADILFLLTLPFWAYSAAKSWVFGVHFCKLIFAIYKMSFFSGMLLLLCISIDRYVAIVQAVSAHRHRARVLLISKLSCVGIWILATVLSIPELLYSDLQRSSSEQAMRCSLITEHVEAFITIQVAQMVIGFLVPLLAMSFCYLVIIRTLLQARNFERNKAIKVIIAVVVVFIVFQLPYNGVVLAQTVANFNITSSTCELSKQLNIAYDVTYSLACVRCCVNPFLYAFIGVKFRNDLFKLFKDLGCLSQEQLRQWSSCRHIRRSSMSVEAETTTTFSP
Test: CCL19-induced calcium mobilization assay, U87.CD4 cells expressing CCR7
Type: cell-based
Conditions: CCL19-induced calcium signaling; read-out: IC50 [μM] block CCL19 induced calcium signaling
Experimental: U87.CD4 cells that stably express either human CCR7, CXCR2, CCR5 or CXCR4 were seeded (20,000 cells/well) in gelatin-coated black-walled polystyrene 96-well plates with clear bottom and incubated overnight at 37°C and 5% CO2. […] Culture medium was removed, and cells were incubated for 45 min at room temperature in the dark. […]
Consider the following molecules; for each one, report its IC50.

These solved cases illustrate the format of a correct answer.
molecule	result
CC(=O)Nc1cccc(NCC(=O)N(Cc2ccc(C)o2)C2CC2)c1 [C054]	> 10 µM
Cc1ocnc1C(=O)N[C@@H]1CC(=O)N(Cc2ccc(F)cc2)C1 [C139]	> 50 µM
NC(=S)Nc1n[nH]c2ccccc12 [C049, S=C(NC1=NNC2=C1C=CC=C2)N]	> 30 µM
Cc1ccc(NCC(=O)NCc2ccco2)cc1C(=O)N(C)C [C057, Cc1ccc(NCC(=O)NCc2ccco2)cc1C(=O)N(C)C]	> 10 µM

Okay, here is my list. What is IC50 for each of these?
1. CNC(=O)[C@H](NC1=NS(=O)(=O)c2ccccc21)C(C)C [C157]
2. COC(=O)c1ccccc1Nc1c(N2CCNC(=O)C2)c(=O)c1=O [C005]
3. CCOC(=O)NC(=S)Nc1ccccn1 [C047, S=C(NC1=NC=CC=C1)NC(OCC)=O]

Response:
> 50 µM
> 50 µM
> 30 µM

Okay, here is my list. What is IC50 for each of these?
1. CNC(=O)c1cccc(NC(=O)N2CC[C@@H](c3ccccc3)C2)c1C [C098]
2. O=C(O[C@@H]1CS(=O)(=O)C[C@@H]1Nc1ccccc1)c1ccccc1 [C123]
3. CC(=O)N[C@@H](Cc1ccccc1)C(=O)N[C@H](C)c1ccccc1 [C144]
4. CN(C)C(=O)c1cc(NC(=O)NCC(C)(C)c2ccccc2)ccn1 [C129]
5. NC(=O)c1cc(NCC(=O)NCc2ccco2)ccc1Cl [C067, NC(=O)c1cc(NCC(=O)NCc2ccco2)ccc1Cl]
6. COC(=O)c1ccccc1Nc1c(NCC2CC2)c(=O)c1=O [C016, COC(=O)c1ccccc1Nc1c(NCC2CC2)c(=O)c1=O]
7. CN(C)S(=O)(=O)c1ccc(-c2nnc(C(=O)NCc3ccccc3)o2)cc1 [C089]

Response:
> 50 µM
> 50 µM
> 50 µM
> 50 µM
> 10 µM
> 50 µM
> 50 µM

Okay, here is my list. What is IC50 for each of these?
1. Cc1cnc([C@@H](C)CNC(=O)Nc2ccc3c(c2)S(=O)(=O)CC3)s1 [C113]
2. O=S1(=O)N=C(NCc2ccco2)c2ccccc21 [C148, O=S1(=O)N=C(NCc2ccco2)c2ccccc21]
3. COc1ccc(CNc2c(NCc3ccc4c(c3)OCO4)c(=O)c2=O)cc1 [C012]
4. Cc1c(NC(=O)CN(C)Cc2ccc(F)cc2)cccc1C(=O)N(C)C [C099]
5. CCn1nccc1[C@H]1NC(=O)CC[C@H]1NC(=O)c1cc(C)n(C)n1 [C152]

Response:
1. > 50 µM
2. > 50 µM
3. > 50 µM
4. > 50 µM
5. > 50 µM

Okay, here is my list. What is IC50 for each of these?
1. FC(F)(F)c1ccccc1NC(=S)Nc1ccc(OCc2ccccc2)cc1 [C035]
2. CCOC(=O)c1sc2ncnc(NC[C@H]3CCCO3)c2c1C [C103, CCOC(=O)c1sc2ncnc(NC[C@H]3CCCO3)c2c1C]
3. Cc1ccc(CNC(=O)c2nnc(-c3ccc(S(=O)(=O)N4CCCC4)cc3)o2)o1 [C091]
4. COC(=O)/C(=C\NC(=S)N/C=C(/OC(=N)c1ccccc1)C(=O)OC)NC(=O)c1ccccc1 [C042]
5. O=C(CNc1c(N2CCN(c3ccc(Cl)cc3)CC2)c(=O)c1=O)NCc1ccco1 [C008]

Response:
1: > 30 µM; 2: > 50 µM; 3: > 50 µM; 4: > 30 µM; 5: > 50 µM
